- Target System: UniProtKB Q14416
- Protocol: mGluR2 cAMP assay (HTRF) in HEK293 cells clonally expressing human mGluR2
- Cond: HEK293 cells expressing human mGluR2, 1 μM forskolin, 1 μM LY-341495, 30 min
- Protocol: • Cell Culture. Clonally expressed human mGluR2 in HEK293 background was glutamate starved overnight in media without glutamine (GIBCO MEM 12360), containing 10% FBS, 1% penicillin streptomycin. • cAMP Measurement. […] Cell pellets were resuspended in stimulation buffer without forskolin and counted. […] Plates were read by time-resolved fluorescence at […] and a ratio was calculated via in house software, (665 nM/618 nM)*10^4. […] One hour later, plates were read on a PE Viewlux. […]
pEC50: −log10 of the molar value.
Reported Property: pEC50

As a guide, the following entries are already answered.
Fc1ccc(F)c([C@H]2C[C@@H]2CNc2ccn3c(CC4CC4)nnc3c2Cl)c1 [Example 43]
8.70
N#Cc1c(NCC2CC2c2ccccc2OC(F)(F)F)ccn2c(CC(F)(F)F)cnc12 (centres unmarked) [Example 28]
7.23
Fc1ccc([C@H]2C[C@@H]2CNc2ccn3c(CC4CC4)nnc3c2Cl)cc1 [Example 5]
8.30

A. Fc1ccccc1[C@@H]1C[C@H]1CNc1ccn2c(CC3CC3)nnc2c1Cl [Example 38]
B. COc1cccc([C@H]2C[C@@H]2CNc2ccn3c(CC4CC4)nnc3c2Cl)c1 [Example 8]
Please tell me which of the two, A or B , has the higher reported pEC50 value. Indicate your choice by writing its label.
A
(A: 8.40, B: 7.92)

1. Fc1ccc(C2(CNc3ccn4c(CC5CC5)nnc4c3Cl)CC2)cc1 [Example 16]
2. FC(F)Oc1ccccc1[C@@H]1C[C@H]1CNc1ccn2c(CC3CC3)nnc2c1Cl (relative stereo) [Example 7]
Lower value of pEC50 belongs to which: 1 or 2 ? Indicate your choice by writing its label.
1
(1: 7.34, 2: 8.22)

----------
- Target System: human mGluR2 (Homo sapiens, UniProt Q14416)
- Sequence (Q14416 19-872): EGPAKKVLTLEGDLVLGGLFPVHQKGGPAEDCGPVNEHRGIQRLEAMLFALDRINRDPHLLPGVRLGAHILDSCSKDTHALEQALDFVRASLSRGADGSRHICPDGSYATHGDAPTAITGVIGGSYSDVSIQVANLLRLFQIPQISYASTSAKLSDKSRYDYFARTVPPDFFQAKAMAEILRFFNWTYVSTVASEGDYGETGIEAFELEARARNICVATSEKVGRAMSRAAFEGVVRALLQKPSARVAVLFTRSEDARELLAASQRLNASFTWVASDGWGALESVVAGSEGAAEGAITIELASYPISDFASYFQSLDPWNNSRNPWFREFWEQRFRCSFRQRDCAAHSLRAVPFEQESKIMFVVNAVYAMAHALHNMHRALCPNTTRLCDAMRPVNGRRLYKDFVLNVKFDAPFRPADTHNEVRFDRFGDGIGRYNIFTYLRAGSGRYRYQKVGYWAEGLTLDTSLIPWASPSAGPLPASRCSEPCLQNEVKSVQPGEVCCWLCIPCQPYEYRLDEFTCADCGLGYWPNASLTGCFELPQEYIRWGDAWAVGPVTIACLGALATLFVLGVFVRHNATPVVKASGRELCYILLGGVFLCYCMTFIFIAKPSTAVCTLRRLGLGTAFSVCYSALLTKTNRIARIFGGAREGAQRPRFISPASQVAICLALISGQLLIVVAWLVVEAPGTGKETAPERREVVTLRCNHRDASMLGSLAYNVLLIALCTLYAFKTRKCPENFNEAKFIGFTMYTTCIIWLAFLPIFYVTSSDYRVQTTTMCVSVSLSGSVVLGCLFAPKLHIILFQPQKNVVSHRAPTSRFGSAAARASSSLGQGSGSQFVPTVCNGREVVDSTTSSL
- Protocol: mGluR2 cAMP assay (HTRF) in HEK293 cells clonally expressing human mGluR2
- Cond: HEK293 cells expressing human mGluR2, 1 μM forskolin, 1 μM LY-341495, 30 min
Reported Property: EC50 (nM)

a. Clc1c(NC[C@@H]2CCC[C@H]2c2ccccc2)ccn2c(CC3CC3)nnc12 (racemic) [Example 3]
b. Fc1ccc(C2CC2CNc2ccn3c(CC4CC4)nnc3c2Cl)cc1 (racemic) [Example 1]
c. CC(Nc1ccn2c(CC3CC3)nnc2c1Cl)[C@@H]1C[C@H]1c1ccc(F)cc1 (some centres unmarked) [Example 14]
d. CN(C[C@H]1C[C@@H]1c1ccc(F)cc1)c1ccn2c(CC(F)(F)F)nnc2c1C(F)(F)F [Example 41]
Give the order of the entries above, sorted from least to greatest EC50. // list labels; follow requested order
d, a, b, c

----------
- Target System: human mGluR2 (Homo sapiens)
- Protocol: mGluR2 cAMP assay (HTRF) in HEK293 cells clonally expressing human mGluR2
- Cond: HEK293 cells expressing human mGluR2, 1 μM forskolin, 1 μM LY-341495, 30 min
pEC50: −log10 of the molar value.
Reported Property: pEC50

As a guide, the following entries are already answered.
Fc1ccc([C@H]2C[C@@H]2CNc2ccn3c(CC(F)(F)F)nnc3c2C(F)(F)F)cc1 [Example 21]
8.70
Clc1c(NC2CCC(c3ccccc3)C2)ccn2c(CC3CC3)nnc12 (stereo not shown) [Example 2]
7.59
COc1cccc(F)c1[C@H]1C[C@@H]1CNc1ccn2c(CC3CC3)nnc2c1Cl [Example 33]
9.00
COc1cccc(F)c1C1CC1CNc1ccn2c(CC(F)(F)F)cnc2c1C#N (stereo not shown) [Example 27]
7.70
Clc1c(NCC2CC2c2cccnc2)ccn2c(CC3CC3)nnc12 (stereo not shown) [Example 19]
6.44
Clc1c(NCC2CC2c2ccncc2)ccn2c(CC3CC3)nnc12 (stereo not shown) [Example 18]
6.61
Fc1ccc(F)c([C@@H]2C[C@H]2CNc2ccn3c(CC4CC4)nnc3c2Cl)c1 [Example 44]
8.70
Clc1c(NC[C@H]2CCC[C@@H]2c2ccccc2)ccn2c(CC3CC3)nnc12 (single isomer, unassigned) [Example 45]
7.92
N#Cc1ccccc1C1CC1CNc1ccn2c(CC3CC3)nnc2c1Cl (stereo not shown) [Example 17]
8.22
Clc1c(NC[C@@H]2C[C@H]2c2cccc3c2OCC3)ccn2c(CC3CC3)nnc12 [Example 36]
8.70

1. CN(C[C@@H]1C[C@H]1c1ccc(F)cc1)c1ccn2c(CC3CC3)nnc2c1C(F)(F)F [Example 40]
2. Fc1ccc([C@@H]2C[C@H]2CNc2ccn3c(CC4CC4)nnc3c2C(F)(F)F)cc1 [Example 22]
Lower value of pEC50 belongs to which: 1 or 2 ? Indicate your choice by writing its label.
1

Data credit: patent US8765767B2
